# Protocol Details: Study-1 Part-B multiple ascending dose pharmacokinetics (plasma and urine)
# Format: in vivo, human
# Measurement Parameters: human, urine and plasma, oral, 15 mg, Study-1 Part-B, 15 mg, Day 14; geo mean (GeoCV%)
Parameter: CL renal (mL/min)
Write down the numeric answer in mL/min and omit the unit.

For reference, reported CL renal for [O-][n+]1cccc(-c2nc3c(Cl)cccc3cc2[C@@H](Nc2ncnc3cccnc23)C(F)(F)F)c1 [Seletalisib, seletalisib] stands at 5.48

* * *

# Protocol Details: Study-2 single-dose pharmacokinetics (plasma)
# Format: in vivo, human
# Measurement Parameters: human, plasma, oral; Study-2 single dose, 90 mg QD cohort; geo mean (GeoCV%)
Parameter: MRT (h)
Write down the numeric answer in h and omit the unit.

For reference, reported MRT for [O-][n+]1cccc(-c2nc3c(Cl)cccc3cc2[C@@H](Nc2ncnc3cccnc23)C(F)(F)F)c1 stands at 22.4

* * *

# Protocol Details: Study-1 Part-A single ascending dose pharmacokinetics (plasma and urine)
# Assay type: in vivo, human
# Measurement Parameters: human, plasma, oral, 5 mg, Study-1 Part-A, single dose 5 mg fasted; geo mean (GeoCV%)
Parameter: Cmax (ng/mL)
Write down the numeric answer in ng/mL and omit the unit.

For reference, reported Cmax for [O-][n+]1cccc(-c2nc3c(Cl)cccc3cc2[C@@H](Nc2ncnc3cccnc23)C(F)(F)F)c1 [Seletalisib, seletalisib] stands at 109

* * *

# Protocol Details: Study-2 multiple-dose day 14 pharmacokinetics (plasma)
# Format: in vivo, human
# Measurement Parameters: human, plasma, oral, 90 mg, Study-2, 90 mg QD, Day 14; geo mean (GeoCV%); read-out: AUC(0–24)
Parameter: AUC(0-t) (ng·h/mL)
Write down the numeric answer in ng·h/mL and omit the unit.

For reference, reported AUC(0-t) for [O-][n+]1cccc(-c2nc3c(Cl)cccc3cc2[C@@H](Nc2ncnc3cccnc23)C(F)(F)F)c1 [Seletalisib, seletalisib] stands at 38600

* * *

# Protocol Details: Study-2 single-dose pharmacokinetics (plasma)
# Assay type: in vivo, human
# Measurement Parameters: human, plasma, oral; Study-2 single dose, 90 mg QD cohort; median (range); read-out: tmax
Parameter: Tmax (h)
Write down the numeric answer in h and omit the unit.

For reference, reported Tmax for [O-][n+]1cccc(-c2nc3c(Cl)cccc3cc2[C@@H](Nc2ncnc3cccnc23)C(F)(F)F)c1 [Seletalisib, seletalisib] stands at 4

* * *

# Protocol Details: Study-2 multiple-dose day 14 pharmacokinetics (plasma)
# Assay type: in vivo, human
# Measurement Parameters: human, plasma, oral; Study-2, day 14, fed, range across groups; read-out: time to peak plasma concentration
Parameter: Tmax

For reference, reported Tmax for [O-][n+]1cccc(-c2nc3c(Cl)cccc3cc2[C@@H](Nc2ncnc3cccnc23)C(F)(F)F)c1 stands at 3.5 to 4 h

* * *

# Protocol Details: Study-2 single-dose pharmacokinetics (plasma)
# Type: in vivo, human
# Measurement Parameters: human, plasma, oral; Study-2, single dose, range across groups; read-out: geometric mean Cmax
# Procedure: These were phase I, randomised, double-blind, placebo-controlled studies designed to evaluate the safety, tolerability, PK and PD profiles of seletalisib following oral administration of single ascending doses and multiple ascending doses. […] Plasma concentrations of seletalisib were measured by high-performance liquid chromatography with tandem mass spectrometry (see Online Resource S1 for further details). […]
Parameter: Cmax

For reference, reported Cmax for [O-][n+]1cccc(-c2nc3c(Cl)cccc3cc2[C@@H](Nc2ncnc3cccnc23)C(F)(F)F)c1 stands at 517 to 1510 ng/mL

Values from paper PMC5384962
